All figures here come from ChEMBL document CHEMBL4346660.

I'd appreciate it if you could supply pIC50 values for the items below.
Test system: L02
procedure-summary: Cytotoxicity against human HL7702 cells assessed as reduction in cell viability incubated for 48 hrs by MTT assay
Format: cell-based
condition-label: L02, 48 h
Give bare numbers, as −log10 of the molar value.

List reported pIC50 for each of these compounds:
1. CN(C)CCCNc1c2c(nc3ccccc13)-c1ccccc1C2
2. COc1cc2c(cc1OC)-c1nc3ccc(F)cc3c(NCCCN3CCOCC3)c1C2
3. Cc1ccc2nc3c(c(NCCCN(C)C)c2c1)Cc1ccccc1-3
4. c1ccc2c(c1)Cc1c-2nc2ccccc2c1NCCCN1CCOCC1
5. COc1cc2c(cc1OC)-c1nc3ccc(F)cc3c(NCCN(C)C)c1C2
6. Cc1ccc2nc3c(c(NCCCN4CCOCC4)c2c1)Cc1ccccc1-3

[6.04, 5.43, 6.24, 5.33, 5.36, 5.78]
